Values were extracted from ChEMBL document CHEMBL3232983.

# protocol summary: Half life in rat liver microsomes at 2 uM
# Assay type: ADME
reported metric: half-life at 2 µM (min)
Return type: number; implicit unit min.

# annotated cases, reported half-life at 2 µM shown
Inquiry: Quick check: half-life at 2 µM of Br.Cn1c(=N)n(CCOc2ccc(Cl)cc2)c2c(Cl)cccc21 ?
Reply text: 37.4

Inquiry: Any idea what its half-life at 2 µM is? The compound is Br.Cc1ccc2c(c1)n(CCOc1ccc(Cl)cc1)c(=N)n2C
Reply text: 18

Inquiry: Please look up its half-life at 2 µM: Br.Cc1cccc2c1n(C)c(=N)n2CCOc1ccc(Cl)cc1
Reply text: 24.6

Inquiry: // half-life at 2 µM lookup, key: Br.Cc1ccc2c(c1)n(C)c(=N)n2CCOc1ccc(Cl)cc1
Reply text: 8.7

# next compound below
Inquiry: Requested read-out: half-life at 2 µM. Entry: Br.Cn1c(=N)n(CCOc2ccc(Cl)cc2)c2ccccc21
Reply text: 13.5
